The reported numbers originate from PubChem BioAssay (Tox21).

Assay: qHTS assay to identify small molecule antagonists of the progesterone receptor (PR) signaling pathway - cell viability counter screen (AID 1346798); further: nearly all actives have a fitted effect of over 50% in size
Conditions: PR-UAS-bla HEK293T viability, CellTiter-Glo luminescence, 16 h; series mostly up to 92.4 µM
Inconclusive results are not listed. Activity calls are given as the source filed them. The call rests on the fitted dose curve; in most records, active means well fitted cell-killing curve with a large enough effect in the repeat runs; inconclusive means weak or mixed curves, or effect the other way; inactive means no such curve, though single readings can be large or run the other way.
Just give me one of these, please: active, inactive

# input Check the results log: what was the call for CCN(CC)C(C)C(=O)c1ccccc1 (stereo not drawn) ?
# output inactive

# input Also check `O=P(O)(Oc1ccccc1)Oc1ccccc1`
# output inactive

# input Input `CC(C)CC#N`
# output inactive

# input Would you mind doing `C1CCC(C2CCCCC2)CC1` as well?
# output active

# input Item: O=C1OC(CCN2CCCCC2)OC1(c1ccccc1)c1ccccc1 (stereo not drawn)
# output inactive

# input Next entry: `O=[N+]([O-])c1cccc2cccnc12`
# output inactive

# input Please answer likewise for `CC(=O)CCc1ccc2c(c1)OCO2`
# output inactive

# input And then `CCOP(=S)(OCC)SCSP(=S)(OCC)OCC` , what is it?
# output inactive
